Recorded values, source patent US12710427B2.

Let's look at some molecules and their measured IC50.
System: PC-3
method-description: In vitro cell cytotoxicity assay (CellTiter-Glo)
Assay type: cell-based

molecule	IC50
h7C3-5: humanized variant; heavy chain SEQ ID NO: 15, light chain SEQ ID NO: 16 (antibody, V domains shown, VH SEQUENCE; VL SEQUENCE) VH: QVQLVQSGAEVKKPGASVKVSCKASGYAFTSSWIHWVRQAPGQRLEWMGQIRPNSGNTYYNEKFKVRVTITRDTSASTAYMELSSLRSEDTAVYYCARYHYGFDYWGQGTLVTVSS VL: DIVMTQTPLSLSVTPGQPASISCRSSQSIVHSNGNTYLEWYLQKPGQSPQLLIYKVSNRFSGVPDRFSGSGSGTDFTLKISRVEAEDVGVYYCFQGAHLPWTFGGGTKVEIKR	> 500 nM
h7C3-4: h7C3-3 variant with S9T and D82E in VH and K79T in VL; VH SEQ ID NO: 13, VL SEQ ID NO: 14 (antibody, V domains shown, VH SEQUENCE; VL SEQUENCE) VH: QVQLQQPGTVLVRPGASVKLSCKASGYAFTSSWIHWAKQRPGQGLEWIGQIRPNSGNTYYNEKFKVKATLTVDTSSSTAYVELSSLTSEDSAVYYCARYHYGFDYWGQGTLVTVSS VL: DVLMTQTPLSLPVSLGDQASISCRSSQSIVHSNGNTYLEWYLQKPGQSPKLLIYKVSNRFSGVPDRFSGSGSGTDFTLTISRVEAEDLGVYYCFQGAHLPWTFGGGTKLEIKR	> 500 nM
h7C3-3: 7C3 variant bearing T28A in CDR H1, Y100H in CDR H3 and S97A in CDR L3 (antibody, V domains shown) VH: QVQLQQPGSVLVRPGASVKLSCKASGYAFTSSWIHWAKQRPGQGLEWIGQIRPNSGNTYYNEKFKVKATLTVDTSSSTAYVDLSSLTSEDSAVYYCARYHYGFDYWGQGTLVTVSS VL: DVLMTQTPLSLPVSLGDQASISCRSSQSIVHSNGNTYLEWYLQKPGQSPKLLIYKVSNRFSGVPDRFSGSGSGTDFTLKISRVEAEDLGVYYCFQGAHLPWTFGGGTKLEIKR	> 500 nM
